Tgt: T1, human CD3ε/δ-Fc fusion protein (soluble recombinant CD3ε/δ complex) (human, UniProt P04234 22-105)
T1 construct: also called huCD3ε/δ; huCD3; not shown: hinge, CH2, CH3 of human IgG with tag
Experiment description: SPR Biacore, CD3εδ-Fc captured, Fab analyte
Endpoint label: pKd
Numbers only, as −log10 of the molar value.

Solved entries:
>  <Binder>
18F5-H10 Fab (Fab, V domains shown, also called BDX-18F5-H10) VH: EVQVVETGGSLVQPGKSLKLTCATSGFTFTNAWMHWVRRSPEKQLEWVAQIKDKSNNYATYYAESVKGRFTISRDDSKSSIYLQMNSLKEEDTAIYYCRYVHYRFAYALDAWGRGTSVSVSS VL: DVLMTQTPVSLSVSLGGQVSISCRSSQSLVHTNGNTYLSWYLQKPGQSPQLLIYKVSNRLSGISDRFSGSGSGTDFTLKISRVEPDDLGVYYCGQGTHYPFTFGAGTKLELKR

>  <pKd>
9.05

$$$$
>  <Binder>
20G6-F3 Fab (Fab, V domains shown, also called BDW-20G6-F3) VH: EVQLVETGGSLVQPGKSLKLTCATSGFTFTKAWMHWVRQSPEKQLEWVAQIKDKSNSYATYYAESVKGRFTISRDDSKSTIYLQMNSLKEEDTAIYYCRGVYYALSPFDYWGQGVMVTVSS VL: DVVMTQTPVSLSVSLGGQVSISCRSSQSLVHNNGNTYLSWYLQKPGQSPQSLIYKVSNRFSGFSDRFSGSGSGTDFTLKISRVDPDDLGVYYCGQGTQYPFTFGSGTKLEIKR

>  <pKd>
8.11

$$$$
>  <Binder>
10E6-G6 Fab (Fab, V domains shown) VH: EVQLVETGGGLVQSGKSLKLTCATSGFTVTNAWMHWVRQSPEKQLEWVAQIKAKSNNYETYYAESVKGRFTISRDDSKSSVYLQMNSLKEEDTAIYYCRGTQYGYNPFDYWGQGVMVTVSS VL: DVVMTQSPVSLSVSLGGQVSISCRSSQSLVHNNGYTYLSWYLQKPGQSPQVFIYKVSNRFSGISDRFSGSGSGTDFTLKISRIEPDDLGVYYCGQGTHYPFTFGSGTKLEIK

>  <pKd>
7.85

$$$$

Moving on to another binder below.
In one line, give reported pKd of the entry 11F9-F8 Fab (Fab, V domains shown, also called 11F9-F8-huFab) VH: EVQLVETGGTLVQPGKSLKLTCATSGFTFSNAWMHWVRQSPEKQLEWVAQIKAKSNNYATYYAESVKGRFTISRDDSKTSVYLQLNSLREEDTAIYYCRGTQYGYNPFDYWGQGVMVTVSS VL: DVVLTQTPVSLSVSLGGQVSISCRSSQSLVHNNGNTYLSWSLQKPGQSPQVLIYKVSNRFSGISNRFSGSGSGTDFTLKISRVEPDDLGVYYCGQGAHYPFTFGSGTKLEIK .
8.28
